target.desc: human MrgX1 receptor (Homo sapiens, UniProt Q96LB2)
Sequence (Q96LB2 whole entry): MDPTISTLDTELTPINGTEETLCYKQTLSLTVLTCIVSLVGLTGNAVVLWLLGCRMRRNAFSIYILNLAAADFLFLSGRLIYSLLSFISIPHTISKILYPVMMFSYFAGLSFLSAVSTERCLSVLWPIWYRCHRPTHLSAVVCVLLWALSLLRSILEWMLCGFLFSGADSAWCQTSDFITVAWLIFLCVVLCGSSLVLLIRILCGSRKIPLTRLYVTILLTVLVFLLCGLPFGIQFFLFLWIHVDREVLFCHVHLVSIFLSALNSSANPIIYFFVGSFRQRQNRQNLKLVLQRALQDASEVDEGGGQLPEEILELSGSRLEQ
experimental.protocol: Receptor Selection and Amplification Technology (R-SAT) functional assay, transfected NIH3T3 cells
condition.info: pEC50 = negative log of molar EC50
reported.metric: pEC50
Convention used: pEC50 is expressed as -log10 of the molar concentration.

Use the examples below as a reference point.
compound	target.desc	pEC50
N=C(N)NCCC[C@@H](C(N)=O)n1c(-c2cccc(Oc3ccccc3)c2)nc2cc(C(=O)NCCc3ccccn3)ccc21	human MrgX1 receptor (Homo sapiens, UniProt Q96LB2)	6.80
CN(CCc1ccccn1)C(=O)c1ccc2c(c1)nc(-c1cccc(Oc3ccccc3)c1)n2[C@@H](CCCNC(=N)N)C(N)=O	human MrgX1 receptor (Homo sapiens, UniProt Q96LB2)	6.00
N=C(N)NCCC[C@@H](C(N)=O)n1c(-c2cccc(Oc3ccccc3)c2)nc2cc(C(=O)N3CCN(c4ccc(F)cc4)CC3)ccc21	human MrgX1 receptor (Homo sapiens, UniProt Q96LB2)	6.00

Proceed to the following item.
// query Entry Cc1cccc(N2CCN(C(=O)c3ccc4c(c3)nc(-c3cccc(Oc5ccccc5)c3)n4[C@@H](CCCNC(=N)N)C(N)=O)CC2C)c1 (stereo partly shown) : reported pEC50 = ?
// result 6.20

====

Emax overview
target.desc: simian MrgX1 receptor (Macaca mulatta)
Sequence (A0A5F7ZSN8 1-322): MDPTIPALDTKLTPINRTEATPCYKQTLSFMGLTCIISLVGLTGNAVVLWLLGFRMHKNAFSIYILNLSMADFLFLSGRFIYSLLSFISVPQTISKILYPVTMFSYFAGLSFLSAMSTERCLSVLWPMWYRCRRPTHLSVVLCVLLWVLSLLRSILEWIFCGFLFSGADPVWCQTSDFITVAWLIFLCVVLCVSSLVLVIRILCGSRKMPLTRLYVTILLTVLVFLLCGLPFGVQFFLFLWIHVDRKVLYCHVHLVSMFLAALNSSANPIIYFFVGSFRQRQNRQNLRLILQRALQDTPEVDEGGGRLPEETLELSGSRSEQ
experimental.protocol: Receptor Selection and Amplification Technology (R-SAT) functional assay, transfected NIH3T3 cells
Type: cell-based, rhesus monkey
condition.info: percent maximal activation relative to Bam22, read-out: Monkey-MrgX1 Eff(%)
Show the value, then the unit it is measured in.

compound	target.desc	Emax
N=C(N)NCCC[C@@H](C(N)=O)n1c(-c2cccc(Oc3ccccc3)c2)nc2cc(C(=O)NCCc3ccccn3)ccc21	simian MrgX1 receptor (Macaca mulatta)	160%

// query For simian MrgX1 receptor (Macaca mulatta), provide Emax of "N=C(N)NCCC[C@@H](C(N)=O)n1c(-c2cccc(Oc3ccccc3)c2)nc2cc(C(=O)N3CCN(c4ccc(F)cc4)CC3)ccc21" please.
// result 148%

// query Check Cc1cccc(N2CCN(C(=O)c3ccc4c(c3)nc(-c3cccc(Oc5ccccc5)c3)n4[C@@H](CCCNC(=N)N)C(N)=O)CC2C)c1 (stereo partly shown) too.
// result 316%

// query Same for "CN(CCc1ccccn1)C(=O)c1ccc2c(c1)nc(-c1cccc(Oc3ccccc3)c1)n2[C@@H](CCCNC(=N)N)C(N)=O"
// result 107%

====

target.desc: human MrgX1 receptor (Homo sapiens, UniProt Q96LB2)
experimental.protocol: Intracellular calcium mobilization (Fura-2) in transfected cells
Type: cell-based
Set-up: expressed in transfected cells
condition.info: normalized to response to BAM22 (100%)
Experimental: 1. CHO-K1 cells transfected with human MrgX1, simian MrgX1, human MrgX2 and simian MrgX2 receptors or a control receptor at a density 1-3×10^6 cells/mL were washed with phosphate-buffered saline. 2. Cells were loaded with 2 μM Fura-2 and analyzed with respect to the rise in intracellular calcium in the presence or absence of varying concentration of test compound. 3. […] 4. Intracellular free calcium concentrations were calculated using the formula: […]
// reported MrgX1 Eff % per item
Give the quantity in %, number only.

The following compounds have reported results that may help.
compound	reported.metric	unit.string	measurement
CN(CCc1ccccn1)C(=O)c1ccc2c(c1)nc(-c1cccc(Oc3ccccc3)c1)n2[C@@H](CCCNC(=N)N)C(N)=O	MrgX1 Eff %	%	112
Cc1cccc(N2CCN(C(=O)c3ccc4c(c3)nc(-c3cccc(Oc5ccccc5)c3)n4[C@@H](CCCNC(=N)N)C(N)=O)CC2C)c1 (stereo partly shown)	MrgX1 Eff %	%	92
N=C(N)NCCC[C@@H](C(N)=O)n1c(-c2cccc(Oc3ccccc3)c2)nc2cc(C(=O)N3CCN(c4ccc(F)cc4)CC3)ccc21	MrgX1 Eff %	%	88

// query Could you tell me which MrgX1 Eff % is on file for "N=C(N)NCCC[C@@H](C(N)=O)n1c(-c2cccc(Oc3ccccc3)c2)nc2cc(C(=O)NCCc3ccccn3)ccc21" ?
// result 106
